The origin of these recorded values is patent US10214546B2.

- Tested on: adenosine uptake into HeLa cells
- test.details: [3H]Adenosine uptake assay in HeLa cells
- Assay type: cell-based
- run.conditions: Homo sapiens, HeLa, [3H]adenosine accumulation in HeLa cells; compound range 10 μM to 0.032 nM; read-out: ADU inhibition IC50
So I've got a bunch of compounds here, and I need their log10(IC50) values.
Answers are given as log10 of IC50 in nM.

# return log10(IC50) for each item in the list
1. CN1CC[C@@H]2CC[C@@H](c3nc(-c4ccc([C@](C)(O)c5cccc(C(F)(F)F)c5)cc4)c4c(N)nccn34)CN2C1=O
2. CC(O)(c1ccc(-c2nc([C@@H]3CC[C@H]4CCC(=O)N4C3)n3ccnc(N)c23)cc1)c1cc(C(F)(F)F)cc(C(F)(F)F)c1 (stereo partly shown)
3. C[C@@](O)(c1ccc(-c2nc([C@H]3CC[C@@H]4COCC(=O)N4C3)n3c(Cl)cnc(N)c23)cc1)c1cccc(C(F)(F)F)c1
4. Cc1ccccc1[C@@](C)(O)c1ccc(-c2nc([C@@H]3CC[C@H]4CCC(=O)N4C3)n3ccnc(N)c23)cc1
5. C[C@@](O)(c1ccc(-c2nc([C@@H]3CC[C@H]4CCC(=O)N4C3)n3c(Cl)cnc(N)c23)cc1)c1cccc(C(F)(F)F)c1
6. Cc1cccc([C@](C)(O)c2ccc(-c3nc([C@@H]4CC[C@H]5CCC(=O)N5C4)n4ccnc(N)c34)cc2)c1

2.24
3.17
3.06
3.31
3.24
3.51

* * *

- tested.system: BTK enzyme (recombinant full-length BTK, hBTK) (Homo sapiens (Human), UniProt Q06187)
- Sequence (Q06187 whole entry): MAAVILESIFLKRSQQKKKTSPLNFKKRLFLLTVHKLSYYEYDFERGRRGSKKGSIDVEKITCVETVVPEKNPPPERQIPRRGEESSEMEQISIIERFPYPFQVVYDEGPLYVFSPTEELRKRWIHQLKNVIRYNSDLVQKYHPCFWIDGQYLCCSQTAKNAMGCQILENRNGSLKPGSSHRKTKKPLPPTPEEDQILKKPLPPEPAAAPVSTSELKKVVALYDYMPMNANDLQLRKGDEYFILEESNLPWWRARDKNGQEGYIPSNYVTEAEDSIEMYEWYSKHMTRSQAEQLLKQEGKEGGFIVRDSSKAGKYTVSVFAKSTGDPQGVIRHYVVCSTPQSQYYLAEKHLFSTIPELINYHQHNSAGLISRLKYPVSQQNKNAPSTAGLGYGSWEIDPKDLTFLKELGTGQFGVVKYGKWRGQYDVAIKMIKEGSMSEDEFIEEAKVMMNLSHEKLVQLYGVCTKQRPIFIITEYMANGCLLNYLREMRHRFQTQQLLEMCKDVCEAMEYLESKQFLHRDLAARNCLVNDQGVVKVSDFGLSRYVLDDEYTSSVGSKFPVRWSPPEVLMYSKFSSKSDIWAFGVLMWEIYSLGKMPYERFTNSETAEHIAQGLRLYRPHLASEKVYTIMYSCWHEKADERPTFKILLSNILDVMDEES
- test.details: BTK enzymatic activity LANCE TR-FRET assay
- run.conditions: 50 pM hBTK, 25 μM ATP, 2 μM biotin-A5-peptide; compound range 1 μM to 0.017 nM; read-out: BTK binding IC50
So I've got a bunch of molecules here, and I need their pIC50 values.
Numbers only, as −log10 of the molar value.

The cases that follow already have their pIC50 on record.
molecule	pIC50
C[C@@](O)(c1ccc(-c2nc([C@H]3CN4C(=O)COC[C@@H]4CO3)n3ccnc(N)c23)cc1)c1cccc(C(F)(F)F)c1 [Example 176]	8.12
CC1(C)C[C@@H]2CC[C@@H](c3nc(-c4ccc([C@@](C)(O)c5cccc(C(F)F)c5)cc4)c4c(N)nccn34)CN2C1=O [Example 181]	9.70
COc1cc([C@@](C)(O)c2cccc(C(F)(F)F)c2)ccc1-c1nc([C@@H]2CC[C@H]3CC(C)(C)C(=O)N3C2)n2ccnc(N)c12 [Example 206]	8.42

# return pIC50 for each item in the list
1. CC(O)(c1ccc(-c2nc([C@@H]3CC[C@H]4CCC(=O)N4C3)n3ccnc(N)c23)cc1)c1cccc(C(F)(F)F)c1 (stereo partly shown) [Example 13]
2. Cc1ccccc1[C@](C)(O)c1ccc(-c2nc([C@@H]3CC[C@H]4CCC(=O)N4C3)n3ccnc(N)c23)cc1 [Example 48]
3. C[C@](O)(c1ccc(-c2nc([C@@H]3CC[C@H]4CCC(=O)N4C3)n3ccnc(N)c23)cc1)c1ccc(C(F)(F)F)s1 [Example 113]
4. C[C@](O)(c1ccccc1)c1ccc(-c2nc([C@@H]3CC[C@H]4CCC(=O)N4C3)n3ccnc(N)c23)cc1 [Example 1]
5. C[C@](O)(c1ccc(-c2nc([C@@H]3CC[C@H]4CCC(=O)N4C3)n3ccnc(N)c23)cc1)c1cccc(C(F)(F)F)c1 [Example 4]

1: 8.77; 2: 8.60; 3: 7.51; 4: 7.19; 5: 9.21

# return pIC50 for each item in the list
1. CC(O)(c1ccc(-c2nc([C@@H]3CC[C@H]4CCC(=O)N4C3)n3ccnc(N)c23)cc1)c1cc(C(F)(F)F)cc(C(F)(F)F)c1 (stereo partly shown) [Example 146]
2. COc1cc(C(O)(c2cccc(C(F)F)c2)C(F)(F)F)ccc1-c1nc([C@@H]2CC[C@H]3CCC(=O)N3C2)n2ccnc(N)c12 (stereo partly shown) [Example 210]

1. 6.12
2. 7.17

# return pIC50 for each item in the list
1. CC(O)(c1ccc(-c2nc([C@@H]3CC[C@H]4CCC(=O)N4C3)n3ccnc(N)c23)cc1)C1CC2CCC1CC2 (stereo partly shown) [Example 150]
2. CCOc1cc(C(C)(O)c2cccc(C(F)(F)F)c2)ccc1-c1nc([C@@H]2CC[C@H]3CCC(=O)N3C2)n2ccnc(N)c12 (stereo partly shown) [Example 162]
3. C[C@@](O)(c1ccc(-c2nc([C@@H]3CC[C@H]4CCC(=O)N4C3)n3ccnc(N)c23)cc1)c1ccnc(C(F)(F)F)c1 [Example 155]

1: 8.80; 2: 9.20; 3: 6.07
